Experiment: NCI Yeast Anticancer Drug Screen. Data for the mec2-1 strain (AID 157)
Applied conditions: S. cerevisiae mec2-1 strain, at 50.0 µM (retest, dose inferred, filed as 5.0), hits give high values
Compounds without any hit were thinned out: in the full panel of roughly 79,000, 15% have a hit.
Quantity: growth inhibition (%)
Please state the figure in %; there is no need to write the unit.

Qu. Look up and report measured growth inhibition for this entry: "Cc1cccc(Cc2cccc(Cl)c2)c1O"
Ans. 98

Qu. Look up and report measured growth inhibition for this entry: COC(=O)Nc1nc2ccc(C(C)(O)c3cccs3)cc2[nH]1 (configuration not stated)
Ans. 95

Qu. Look up and report measured growth inhibition for this entry: "O=[N+]([O-])c1ccccc1N=Nc1c(O)[nH]c2ccc(S(=O)(=O)O)cc12"
Ans. 87

----------
Experiment: NCI Yeast Anticancer Drug Screen. Data for the bub3 strain (AID 167)
Applied conditions: S. cerevisiae bub3 mutant strain, at 50.0 µM (retest, dose inferred, filed as 5.0), hits give high values
Method: Growth inhibition of yeast strains with defined genetic alterations is measured as a screen for potential anti-cancer activity. Selected strains with alterations in DNA damage repair or cell cycle control were exposed to compounds and growth inhibition was measured relative to vehicle treated controls. The strain used in this assay is bub3
Compounds without any hit were thinned out: in the full panel of roughly 79,000, 15% have a hit.
# growth inhibition per record follows
Please state the figure in %; there is no need to write the unit.

Known results for molecules:
{"columns": ["Molecule", "growth inhibition (%)"],
 "data": [
  ["CC(C)C(=O)/C=C/c1c(Cl)cccc1Cl", 18],
  ["CCc1nc(N)nc(N)c1-c1ccc(NCCCN)c([N+](=O)[O-])c1", -18],
  ["COC(=O)/C(=N\\NC(=O)c1ccccc1O)C(C#N)c1ccc(Cl)cc1 (stereo unspecified)", 79],
  ["Cc1nc(C)c(C(=O)NNC(=O)C[N+](C)(C)C)cc1C(=O)NNC(=O)C[N+](C)(C)C", 8],
  ["C=C(CN(C)C)C(=O)c1ccc(C)cc1C", 99]
]}

Qu. Look up and report measured growth inhibition for this entry: "O=C1C(Cl)=C(Cl)C(=O)c2cc(Cl)c(Cl)cc21"
Ans. 98

----------
Experiment: NCI Yeast Anticancer Drug Screen. Data for the sgs1 mgt1 strain (AID 161);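 also: 0% = growth of cultures given vehicle only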
Applied conditions: S. cerevisiae sgs1 mgt1 strain, at 5.0 µM (retest, dose inferred, filed as 0.5)
Experimental: Growth inhibition of yeast strains with defined genetic alterations is measured as a screen for potential anti-cancer activity. Selected strains with alterations in DNA damage repair or cell cycle control were exposed to compounds and growth inhibition was measured relative to vehicle treated controls. The strain used in this assay is sgs1 mgt1
About 79,000 compounds went through this panel and 15% of them were active in at least one assay; those are over-represented in the sample as a whole. Calls of active or inactive are those of the source. Rule as the data show it: active = growth inhibition above about 70%; inactive = the rest.
Answer with one of the outcomes given here: True for active, False for inactive

{"columns": ["Molecule", "Assigned label"],
 "data": [
  ["COc1ccc2nc(NC(=O)Nc3c(Cl)cccc3Cl)sc2c1", "False"]
]}

Qu. Hello, I am checking results. What call was entered for "c1csc(CNCc2cccs2)c1" ?
Ans. False

Qu. Hello, I am checking results. What call was entered for Cc1c(O)ccc2c1OCC(c1ccc(Cl)cc1)C2 (configuration not stated) ?
Ans. False

Qu. Hello, I am checking results. What call was entered for "C(=C\c1ccc(-[n+]2nc(-c3ccccc3)nn2-c2ccccc2)cc1)/c1ccccc1" ?
Ans. True

Qu. Hello, I am checking results. What call was entered for O=C(CC1(O)C(=O)Nc2c(Cl)cccc21)c1ccc(Cl)cc1 (configuration not stated) ?
Ans. False

----------
Experiment: NCI Yeast Anticancer Drug Screen. Data for the cln2 rad14 strain (AID 165);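 also: 0% = growth equal to vehicle treated cultures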
Applied conditions: S. cerevisiae cln2 rad14 strain, at 50.0 µM, hits give high values
About 79,000 compounds went through this panel and 15% of them were active in at least one assay; those are over-represented in the sample as a whole.
Where growth inhibition equals or exceeds 40%, the correct label is True; where it does not, the label is False.

Solved entries:
{"columns": ["Compound", "Assigned label"],
 "data": [
  ["Cc1cc(Cl)c(O)c(C(=O)C(=O)C(O)c2ccc3c(c2)OCO3)c1 (centres undefined)", "True"],
  ["CCSC(=Nc1nc2ccc(NC(C)=O)cc2s1)SCC", "True"],
  ["Nc1ccc(C(=O)/C=C/c2ccccc2O)cc1", "False"]
]}

Qu. Is reported growth inhibition greater than or equal to 40% here: "CCOC(=O)c1ccc(O)c(C=O)c1"
Ans. True

Qu. Is reported growth inhibition greater than or equal to 40% here: "C/C(=N\NC(=S)NNC(=S)N1CCCc2ccccc21)c1ccccn1"
Ans. True

----------
Experiment: NCI Yeast Anticancer Drug Screen. Data for the mec2-1 strain (AID 157)
Applied conditions: S. cerevisiae mec2-1 strain, at 5.0 µM (retest, dose inferred, filed as 0.5), hits give high values
About 79,000 compounds went through this panel and 15% of them were active in at least one assay; those are over-represented in the sample as a whole.
# growth inhibition per record follows
Please state the figure in %; there is no need to write the unit.

Known results for compounds:
{"columns": ["Compound", "growth inhibition, %"],
 "data": [
  ["CC(C)c1ccc(O)c(Cc2cc(C(C)C)ccc2O)c1", 23],
  ["CC(C)=CC1C(COC(=O)CCl)C1(C)C (configuration not stated)", 3],
  ["CC1=C(C)C1[N+](=O)[O-]", 35]
]}

Qu. Look up and report measured growth inhibition for this entry: "c1ccc2c(c1)Sc1nccc3ccnc-2c13"
Ans. 28

Qu. Look up and report measured growth inhibition for this entry: "Cc1ccc(S(=O)(=O)S/C(=N\c2ccccn2)Nc2ccccn2)cc1"
Ans. 72

Qu. Look up and report measured growth inhibition for this entry: "O=C1C=C(OCC=C(C(F)(F)F)C(F)(F)F)C(=O)c2ccccc21"
Ans. 27

Qu. Look up and report measured growth inhibition for this entry: "CCOC(=O)C(=Cc1ccc(C(=O)OC)cc1)C(=O)OCC"
Ans. 11

Qu. Look up and report measured growth inhibition for this entry: "O=C(NCCCNCCCCNCCCNC(=O)c1cc(-c2ccccc2)nc2ccccc12)c1cc(-c2ccccc2)nc2ccccc12"
Ans. 25

Qu. Look up and report measured growth inhibition for this entry: "CN(C)CCCN1c2ccc3ccccc3c2Sc2cccc(Cl)c21"
Ans. 19

Qu. Look up and report measured growth inhibition for this entry: "CS(=O)(=O)C(=Cc1ccccc1Cl)S(C)(=O)=O"
Ans. 20

----------
Experiment: NCI Yeast Anticancer Drug Screen. Data for the bub3 strain (AID 167)
Applied conditions: S. cerevisiae bub3 mutant strain, at 50.0 µM
This is part of a sample that, as a whole, favours compounds with a hit. Of some 79,000 tested, about 15% had one in any assay. The source made the active and inactive calls. No stated cut-off is given here; in the data, active means growth inhibition above about 70%; inactive means the rest.
Answer with one of the outcomes given here: active, inactive

Solved entries:
{"columns": ["Compound", "Assigned label"],
 "data": [
  ["C1=C(c2ccccc2)C(c2ccccc2)C(c2ccccc2)C/C1=N/OCCN1CCCC1 (stereo not given)", "active"],
  ["COc1ccc2c(ccc[n+]2CC(=O)c2ccc(-c3ccccc3)cc2)c1", "inactive"],
  ["COC(=O)C1=C(C(=O)OC)C2C(C)=CC(C)=CN2C(C(=O)OC)=C1C(=O)OC (stereo not given)", "inactive"]
]}

Qu. Hello, I am checking results. What call was entered for CCC1C(c2cccc(OC)c2O)c2cc3c(cc2OC1N1CCCC1)OCO3 (stereo not given) ?
Ans. inactive

Qu. Hello, I am checking results. What call was entered for "COC(=O)/C=C(\C)Nc1ccc(Cc2ccc(Br)cc2)cc1" ?
Ans. active

----------
Experiment: NCI Yeast Anticancer Drug Screen. Data for the rad50 strain (AID 155);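 also: 0% = growth of vehicle-only cultures of the same strain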
Applied conditions: S. cerevisiae rad50 strain growth inhibition; at 50.0 µM (retest, dose inferred, filed as 5.0)
Procedure: Growth inhibition of yeast strains with defined genetic alterations is measured as a screen for potential anti-cancer activity. Selected strains with alterations in DNA damage repair or cell cycle control were exposed to compounds and growth inhibition was measured relative to vehicle treated controls. The strain used in this assay is rad50
Compounds without any hit were thinned out: in the full panel of roughly 79,000, 15% have a hit. Calls of active or inactive are those of the source. Cut-off read from the data, not from the text of the source: active = growth inhibition above about 70%; inactive = the rest.
Answer with one of the outcomes given here: active, inactive

Solved entries:
{"columns": ["Molecule", "Assigned label"],
 "data": [
  ["O=c1cc(-c2ccccc2)oc2ccc(-c3ccc4oc(-c5ccccc5)cc(=O)c4c3)cc12", "inactive"],
  ["Nc1c(C(=O)Nc2ccccc2)[n+]([O-])c2ccccc2[n+]1[O-]", "active"],
  ["CC1CCCCN(CCN(Cc2ccccc2)c2ccccc2)C1 (stereo unspecified)", "inactive"],
  ["O=C(Nc1ccccc1C(=O)O)c1ccccc1", "inactive"],
  ["COC(=O)C1(C)CCc2c(ccc3cccc(OC)c23)C1=O (stereo unspecified)", "active"],
  ["COC(=O)NNc1c([N+](=O)[O-])cnn(-c2ccccc2)c1=O", "inactive"]
]}

Qu. Hello, I am checking results. What call was entered for "Oc1cccnc1CN1CCCCC1" ?
Ans. inactive

Qu. Hello, I am checking results. What call was entered for C=C1C(=O)OC2C(C)C3C=CC(=O)[C@@]3(C)C(OC(=O)/C(C)=C/C)C1[C@@H]2OC(C)=O (stereo partly specified) ?
Ans. active

Qu. Hello, I am checking results. What call was entered for CC12CCC(O)CC1=CCC1C2CCC2(C)C(NC(=O)C(Cc3ccc(O)cc3)NC(=O)OCc3ccccc3)CCC12 (stereo unspecified) ?
Ans. active

Qu. Hello, I am checking results. What call was entered for "N#CSCC(=O)c1ccc2ccccc2c1" ?
Ans. active

Qu. Hello, I am checking results. What call was entered for CCCC1CCCC1(CC(=O)c1ccccc1)C(=O)O (stereo unspecified) ?
Ans. inactive
